These data points were gathered from the supplement of paper PMC7411054.

system: A549-GM130-SQSTM1; test: lowest phenotypically active concentration; higher = less potent; conditions: treatment time: 24 h
readout type: lowest phenotypically active concentration (µM)
Please respond with the number in µM and leave the unit unwritten.

Examples with answers:
# compound, tested on, unit of measurement, observed result
rows = [
    ("Fc1ccccc1Nc1nc2nonc2nc1Nc1ccccc1F", "A549-GM130-SQSTM1", "µM", 3),
    ("CO[C@H]1C=CO[C@@]2(C)Oc3c(C)c(O)c4c(O)c(c(/C=N/N5CCN(C)CC5)c(O)c4c3C2=O)NC(=O)C(C)=CC=C[C@H](C)[C@H](O)[C@@H](C)[C@@H](O)[C@@H](C)[C@H](OC(C)=O)[C@@H]1C [Rifampicin]", "A549-GM130-SQSTM1", "µM", 9),
    ("COc1cc2nc(N3CCN(C(=O)C4COc5ccccc5O4)CC3)nc(N)c2cc1OC (stereo not drawn) [doxazosin]", "A549-GM130-SQSTM1", "µM", 9),
    ("CN1CCc2cccc3c2[C@H]1Cc1ccc(O)c(O)c1-3 [r(-)-apomorphine]", "A549-GM130-SQSTM1", "µM", 9),
]

Record NS(=O)(=O)c1nn2cc(-c3ccccc3)nc2s1 . Reported lowest phenotypically active concentration: 9

Record Cc1cnc(NC(=O)Nc2cc(Br)c(C)cc2OC[C@@H]2CNCCO2)cn1 . Reported lowest phenotypically active concentration: 3

Record Cc1cc2nc(NCCCO)n(CC(=O)c3cc(C(C)(C)C)c(O)c(C(C)(C)C)c3)c2cc1C . Reported lowest phenotypically active concentration: 3
